# system-name: Human CD3eg linker (human)
# Sequence (chain, as listed by the source limits assumed): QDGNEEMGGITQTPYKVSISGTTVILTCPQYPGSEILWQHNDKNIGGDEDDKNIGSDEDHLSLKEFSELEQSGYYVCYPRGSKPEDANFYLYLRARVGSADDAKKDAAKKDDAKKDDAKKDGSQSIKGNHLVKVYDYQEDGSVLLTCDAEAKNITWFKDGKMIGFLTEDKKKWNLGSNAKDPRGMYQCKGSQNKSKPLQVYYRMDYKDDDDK
# assay-text: SPR; fold vs parent H183/L072
reported-property: fold change of affinity (fold)
# unit: fold | format: bare number

Examples from the recorded data:
INSERT INTO assay_data (binder, reported_property, endpoint_unit, meas_value) VALUES
  ('H183/L072 VL T92I (antibody, name in Kabat numbering, V domains shown) VH: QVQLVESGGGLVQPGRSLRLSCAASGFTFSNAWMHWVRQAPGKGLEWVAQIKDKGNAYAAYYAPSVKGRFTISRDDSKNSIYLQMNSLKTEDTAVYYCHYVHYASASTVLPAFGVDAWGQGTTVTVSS VL: DIVMTQSPLSLPVTPGEPASISCQASQELVHMNRNTYLHWYQQKPGQAPRLLIYKVSNRFPGVPDRFSGSGSGTDFTLKISRVEAEDVGVYYCAQGISVPFTFGQGTKLEIK', 'fold change of affinity', 'fold', 0),
  ('H183/L072 VL Q90A (antibody, name in Kabat numbering, V domains shown) VH: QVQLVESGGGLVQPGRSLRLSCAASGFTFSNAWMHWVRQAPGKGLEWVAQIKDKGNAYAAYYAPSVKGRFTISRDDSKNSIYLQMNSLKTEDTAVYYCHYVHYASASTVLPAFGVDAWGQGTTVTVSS VL: DIVMTQSPLSLPVTPGEPASISCQASQELVHMNRNTYLHWYQQKPGQAPRLLIYKVSNRFPGVPDRFSGSGSGTDFTLKISRVEAEDVGVYYCAAGTSVPFTFGQGTKLEIK', 'fold change of affinity', 'fold', 0);

For H183/L072 VL L33P (antibody, name in Kabat numbering, V domains shown) VH: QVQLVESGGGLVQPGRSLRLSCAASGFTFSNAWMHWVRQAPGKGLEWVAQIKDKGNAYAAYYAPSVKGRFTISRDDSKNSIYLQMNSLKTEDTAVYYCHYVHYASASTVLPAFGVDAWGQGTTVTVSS VL: DIVMTQSPLSLPVTPGEPASISCQASQELVHMNRNTYPHWYQQKPGQAPRLLIYKVSNRFPGVPDRFSGSGSGTDFTLKISRVEAEDVGVYYCAQGTSVPFTFGQGTKLEIK the binder record lists fold change of affinity as 0
